Documented growth across a set of compounds
test system: HCT-116 colon; assay: NCI-60 one-dose screen, 48 h (100 = growth as untreated, 0 = no growth, -100 = all killed); settings: 10 µM unless noted
Compounds without any hit were thinned out: in the full panel of roughly 83,000, 20% have a hit.
Note: unit % is implicit; provide only the numeric part.

Example entries and their recorded answers appear below.
compound	measured.target	growth (%)
CCOc1c(Cl)cc(CNC(C)C(O)c2ccccc2)cc1OC (centres undefined)	HCT-116 colon	59.2
N#C[Se]CCN1C(=O)C2C(C1=O)[C@H]1C=C[C@@H]2S1 (some centres undefined)	HCT-116 colon	-35.4
CCCCNCCc1ccccn1	HCT-116 colon	102
N#[N+]c1nc2nc(N)[nH]c(=O)c2[nH]1	HCT-116 colon	96.8
O=S(=O)(O)c1ccc(-c2ccc([As](=O)(O)O)cc2)cc1	HCT-116 colon	108
CCCCOC(=O)c1ccccc1C(=O)O.CCCCOC(=O)c1ccccc1C(=O)O.[Cu+2]	HCT-116 colon	102
CC(=O)[O][Hg][c]1ccccc1	HCT-116 colon	-88
C[C@]12CC[C@@H]3c4ccc(OC(=O)Cc5ccc(N(CCCl)CCCl)cc5)cc4CC[C@H]3[C@@H]1CC[C@@H]2OC(=O)Cc1ccc(N(CCCl)CCCl)cc1	HCT-116 colon	104

Write growth of c1ccc([As]=[As]c2ccccc2)cc1 (centres undefined) ; system used: HCT-116 colon -99.4

Write growth of O=CC(Br)C(Br)c1ccccc1 (centres undefined) ; system used: HCT-116 colon 2.83

====

test system: HL-60(TB) leukemia; test: NCI-60 one-dose screen, 48 h (100 = growth as untreated, 0 = no growth, -100 = all killed); conditions: 10 µM unless noted
The panel holds about 83,000 compounds, 20% with a hit somewhere; the sample as a whole holds those more often.
Documented growth across a set of compounds
Note: unit % is implicit; provide only the numeric part.

Example entries and their recorded answers appear below.
In [3]: df
Out[3]:
                                   compound  numeric_readout
0  CCOc1ccc(-n2c(-c3cc(OC)c(OC)c(OC)c3)nnc2-c2ccc(OC)cc2N)cc1             28.5
1      COc1ccc(OC)c(/C=C2\CCc3ccccc3C2=O)c1             16.9
2  c1ccc2nc(N/N=C3\CCCCC3C3CCCCC3)ccc2c1 (stereo unspecified)            -19.7
3  CC(CN1CCCCC1)C(=O)c1ccccc1 (stereo unspecified)              103
4  Clc1ccccc1[C@@H]1C[C@@H]2Cc3cc(Br)c4ccccc4c3N1O2             7.98
5                  CCC(C)(CC)c1ccc(O)c(C)c1              105

Assign growth to the following record: C[C@H](C(=O)N[C@@H](Cc1ccc(-c2ccccc2)cc1)C(=O)NC1CC(C)(C)NC(C)(C)C1)c1ccc(-c2ccccc2)c(F)c1 -59.1

Assign growth to the following record: COc1ccccc1-[n+]1cc(-c2ccc(-c3ccccc3)cc2)n2c1CCCCC2 -27.7

Assign growth to the following record: C=C1C(=O)O[C@H]2[C@H]1CC/C(Cn1cc(CNC(=O)/C=C/c3c[nH]c4ccccc34)nn1)=C\CC[C@@]1(C)O[C@@H]21 29.9

Assign growth to the following record: NS(=O)(=O)c1ccc(C(=O)N=Nc2c(O)[nH]c3c(F)cccc23)cc1 102

Assign growth to the following record: COc1ccc(-c2n[nH]nc2-c2cc3ccccc3s2)cc1O 2.49

====

system: HL-60(TB) leukemia; assay: NCI-60 one-dose screen, 48 h; details: 10 µM unless noted
About 83,000 compounds went through this panel and 20% of them were active in at least one assay; those are over-represented in the sample as a whole. The source made the active and inactive calls. Rule for the calls: active = growth percent below 10; inactive = the rest.
API: response.call in active, inactive

molecule	assigned.class
CCN=C1C=CC(=C(c2ccc(N(CC)CC)cc2)c2ccc(N(CC)CC)cc2)c2ccccc21	active
CN(C)CCC=C1c2ccccc2C(C)(C)c2ccccc21	inactive
Clc1ccc(-c2nc(-c3c[nH]c4ncccc34)cs2)cc1	inactive

What was the test verdict on COc1cc(OC)cc(-c2n/c(=C\c3c(O)[nH]c4ccc(OC)cc34)cc3c2=Nc2ccccc2-3)c1 ? inactive

What was the test verdict on Cc1nc(O)cc(=O)[nH]1 ? inactive

====

test system: HL-60(TB) leukemia; assay: NCI-60 one-dose screen, 48 h (100 = growth as untreated, 0 = no growth, -100 = all killed); settings: 10 µM unless noted
About 83,000 compounds went through this panel and 20% of them were active in at least one assay; those are over-represented in the sample as a whole.
Documented growth across a set of compounds
Note: unit % is implicit; provide only the numeric part.

In [3]: df
Out[3]:
                                   compound     measured_target  readout_label  unit_spec  numeric_readout
0                    FCOC(C(F)(F)F)C(F)(F)F  HL-60(TB) leukemia         growth          %             96.1
1  CC(CCCC(=O)O)c1ccoc1 (configuration not stated)  HL-60(TB) leukemia         growth          %             97.6
2  C1CCC(C(CC2CCCCN2)C2CCCCC2)CC1 (configuration not stated)  HL-60(TB) leukemia         growth          %             11.1
3  COc1ccccc1N1CCN(C(=O)c2ccc3nc(NC(=O)c4ccc(NCCc5ccccc5)c([N+](=O)[O-])c4)sc3c2)CC1  HL-60(TB) leukemia         growth          %             94.3
4         COc1ccc(-c2nc3c(N)c(CO)cnc3s2)cc1  HL-60(TB) leukemia         growth          %             80.5

Write growth of Cc1ccc(S(=O)(=O)N(C)CCCCCC(=O)O)cc1 ; system used: HL-60(TB) leukemia 93.4

Write growth of CC(=O)[C@H]1CC[C@H]2[C@@H]3CCC4=CC(=O)C=C[C@]4(C)[C@H]3CC[C@]12C ; system used: HL-60(TB) leukemia 90.9

Write growth of CCOC(=O)c1cc(C(=O)c2cc(OC)cc(OC)c2)n2ccc3ccccc3c12 ; system used: HL-60(TB) leukemia 103

Write growth of NC(CO)(CO)c1ccccc1 ; system used: HL-60(TB) leukemia 119

Write growth of O=C1CCc2c(sc3[nH]c(=S)n(Cc4ccc(Cl)cc4)c(=O)c23)C1 ; system used: HL-60(TB) leukemia -5.26

Write growth of COc1cc2c(cc1O)CC[C@@H]1C2CC[C@@]2(C)C1CC[C@@H]2O (some centres not stated) ; system used: HL-60(TB) leukemia -3.13

====

system: HL-60(TB) leukemia; assay: NCI-60 one-dose screen, 48 h (100 = growth as untreated, 0 = no growth, -100 = all killed); settings: 10 µM unless noted
About 83,000 compounds went through this panel and 20% of them were active in at least one assay; those are over-represented in the sample as a whole. The source made the active and inactive calls. How the source made its calls: active means growth percent below 10; inactive means the rest.
Documented growth across a set of compounds

Example entries and their recorded answers appear below.
>>> df
                                   compound                    result
0  COc1ccc2c(c1)OC(N)=C(C#N)C2c1cc(OC)c(OC)c(OC)c1 (stereo not drawn)           -30.4% (active)
1  COC(=O)[C@H](Cc1cn(C)cn1)NC(=O)[C@H](Cc1ccccc1)NC(=O)Nc1cc(C(F)(F)F)cc(C(F)(F)F)c1  -67.9% [100 µM] (active)

Now examine the next entry.
Assign growth to the following record: C#CCO[C@H]1CC[C@H](OCC#C)[C@@H]2[C@H]1[C@H]1C[C@@H]3[C@@]4(C)CCC[C@@](C)(C(=O)OC)[C@@H]4CC[C@@]23C=C1C(C)C 78.1% (inactive)

====

Tested on: HL-60(TB) leukemia
Assay: NCI-60 one-dose screen, 48 h (100 = growth as untreated, 0 = no growth, -100 = all killed)
Conditions: 10 µM unless noted
Procedure: Growth inhibition of the HL-60(TB) human tumor cell line is measured as a screen for anti-cancer activity. Cells are grown in 96 well plates and exposed to the test compound for 48 hours. Compounds are tested at a single concentration, which is 10^-5 M for most compounds. The reported endpoint is percent growth (GI% or GIPRCNT), where numbers from 0 - 100% represent growth inhibition, and numbers from -100% - 0 represent cell death. For example, a value of 40 represents 60% growth inhibition. […]
This is part of a sample that, as a whole, favours compounds with a hit. Of some 83,000 tested, about 20% had one in any assay.
Everything with growth lower than 90% is Not satisfied; everything else, including exactly 90%, is Satisfied.

A selection of reference data follows.
compound	assigned.class
Clc1cccc(Nc2ncnc3ccc(-c4cncc(-n5cnnn5)c4)cc23)c1	Not satisfied
CN[C@@H](C)C(=O)N[C@H]1CCS[C@H]2CC(C)(C)[C@@H](C(=O)N[C@H]3c4ccccc4C[C@H]3OCC#CC#CCO[C@@H]3Cc4ccccc4[C@@H]3NC(=O)[C@H]3N4C(=O)[C@@H](NC(=O)[C@H](C)NC)CCS[C@H]4CC3(C)C)N2C1=O	Not satisfied
CN(C)CC/C=C1\c2ccccc2Sc2ccc(Cl)cc21	Satisfied
COc1ccc(-c2cc(-c3cc(OC)ccc3OC)nc(SCC(C)=O)c2C#N)cc1	Not satisfied

Is the recorded value of growth equal to or greater than 90% for this compound? CC(c1ccccc1)N1C(=O)CSC1=S (stereo not given) Not satisfied

Is the recorded value of growth equal to or greater than 90% for this compound? Nc1ccc(N=Nc2ccccc2)c2cc(S(=O)(=O)O)ccc12 Satisfied

Is the recorded value of growth equal to or greater than 90% for this compound? O=C(Cn1ccnc1)NC(c1ccccc1)c1ccccc1 Satisfied

Hello, the source for this data is PubChem BioAssay (NCI), in case you need it.
